This collection of values is drawn from patent EP3722296B1.

Experimental target: c-KIT T670I kinase (Homo sapiens, UniProt P10721, T670I)
Construct: The construct contains residues T544-V976 of cKit; GST (N); TEV cleavage site (internal)
Sequence (P10721 544-976 T670I): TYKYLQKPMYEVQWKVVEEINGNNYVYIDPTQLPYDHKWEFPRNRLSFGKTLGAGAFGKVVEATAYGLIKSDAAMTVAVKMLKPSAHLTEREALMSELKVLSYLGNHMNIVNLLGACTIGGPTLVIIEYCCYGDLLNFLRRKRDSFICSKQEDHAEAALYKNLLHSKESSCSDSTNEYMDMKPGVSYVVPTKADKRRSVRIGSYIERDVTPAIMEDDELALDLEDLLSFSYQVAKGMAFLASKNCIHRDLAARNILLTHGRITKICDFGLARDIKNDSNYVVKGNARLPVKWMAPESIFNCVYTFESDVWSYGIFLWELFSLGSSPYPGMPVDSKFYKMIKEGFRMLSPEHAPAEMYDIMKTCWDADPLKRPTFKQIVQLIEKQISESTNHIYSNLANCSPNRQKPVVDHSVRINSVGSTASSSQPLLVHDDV
Assay overview: c-KIT T670I kinase assay
Measurement parameters: enzymatic assay
Parameter measured: IC50

A selection of reference data follows.
- Smiles repr: "CNc1cc2c(cn1)cc(-c1cc(NC(=O)Nc3csc4ccccc34)c(F)cc1F)c(=O)n2C"
  IC50: "< 10 nM"
- Smiles repr: "CCn1c(=O)c(-c2cc(NC(=O)Nc3ccccc3)c(F)cc2C)cc2cnc(NC(C)=O)cc21"
  IC50: "10 to 100 nM"

Exercise: IC50 for `CCn1c(=O)c(-c2cc(NC(=O)Nc3cccc(CN4CCN(C)CC4)c3)c(F)cc2C)cc2cnc(NC)cc21` ?
Key: 100 to 1000 nM

Exercise: IC50 for `CCn1c(=O)c(-c2cc(NC(=O)Nc3ccccc3)c(F)cc2F)cc2cnc(NC(=O)N(C)C)cc21` ?
Key: < 10 nM

###

Experimental target: c-KIT kinase (Homo sapiens)
Sequence (P10721 544-976): as the sequence (P10721 544-976 T670I) above, with I127T counted along it
Assay overview: c-KIT kinase Assay
Assay type: biochemical
Set-up: cKIT residues T544-V976; GST (N); TEV cleavage site (internal); purchased deCODE Biostructures
Measurement parameters: enzymatic assay, ATP 200 µM; read-out: KIT (wt) IC50
pIC50: −log10 of the molar value.
# pIC50 listing for each entry below

A selection of reference data follows.
- Smiles repr: "CCn1c(=O)c(-c2cc(NC(=O)Nc3ccccc3)c(F)cc2C)cc2cnc(NC(=O)N3CC(N(C)C)C3)cc21"
  Experimental target: "c-KIT kinase (Homo sapiens)"
  pIC50: "7.00 to 8.00"
- Smiles repr: "CCn1c(=O)c(-c2cc(NC(=O)Nc3cccc(F)c3)c(F)cc2C)cc2cnc(NC)cc21"
  Experimental target: "c-KIT kinase (Homo sapiens)"
  pIC50: "> 8.00"
- Smiles repr: "CCn1c(=O)c(-c2cc(NC(=O)Nc3cccc(F)c3)c(F)cc2F)cc2cnc(NC)cc21"
  Experimental target: "c-KIT kinase (Homo sapiens)"
  pIC50: "> 8.00"
- Smiles repr: "CCn1c(=O)c(-c2cc(NC(=O)Nc3ccccc3)c(F)cc2Cl)cc2cnc(N[C@@H](C)COC)cc21"
  Experimental target: "c-KIT kinase (Homo sapiens)"
  pIC50: "7.00 to 8.00"

Exercise: pIC50 for `CCn1c(=O)c(-c2cc(NC(=O)Nc3csc4ccccc34)c(F)cc2F)cc2cnc(NC)cc21` ?
Key: > 8.00

Exercise: pIC50 for `CCn1c(=O)c(-c2cc(NC(=O)Nc3ccccc3)c(F)cc2Br)cc2cnc(NC(=O)N(C)C)cc21` ?
Key: 7.00 to 8.00

Exercise: pIC50 for `CCn1c(=O)c(-c2cc(NC(=O)Nc3cc(F)cc(F)c3)c(F)cc2C)cc2cnc(NC(=O)N(C)C)cc21` ?
Key: 7.00 to 8.00

###

Experimental target: Phospho-KIT (Tyr719) (Homo sapiens, UniProt P10721, K642E)
Construct: endogenous in cells
Sequence (P10721 26-976 K642E): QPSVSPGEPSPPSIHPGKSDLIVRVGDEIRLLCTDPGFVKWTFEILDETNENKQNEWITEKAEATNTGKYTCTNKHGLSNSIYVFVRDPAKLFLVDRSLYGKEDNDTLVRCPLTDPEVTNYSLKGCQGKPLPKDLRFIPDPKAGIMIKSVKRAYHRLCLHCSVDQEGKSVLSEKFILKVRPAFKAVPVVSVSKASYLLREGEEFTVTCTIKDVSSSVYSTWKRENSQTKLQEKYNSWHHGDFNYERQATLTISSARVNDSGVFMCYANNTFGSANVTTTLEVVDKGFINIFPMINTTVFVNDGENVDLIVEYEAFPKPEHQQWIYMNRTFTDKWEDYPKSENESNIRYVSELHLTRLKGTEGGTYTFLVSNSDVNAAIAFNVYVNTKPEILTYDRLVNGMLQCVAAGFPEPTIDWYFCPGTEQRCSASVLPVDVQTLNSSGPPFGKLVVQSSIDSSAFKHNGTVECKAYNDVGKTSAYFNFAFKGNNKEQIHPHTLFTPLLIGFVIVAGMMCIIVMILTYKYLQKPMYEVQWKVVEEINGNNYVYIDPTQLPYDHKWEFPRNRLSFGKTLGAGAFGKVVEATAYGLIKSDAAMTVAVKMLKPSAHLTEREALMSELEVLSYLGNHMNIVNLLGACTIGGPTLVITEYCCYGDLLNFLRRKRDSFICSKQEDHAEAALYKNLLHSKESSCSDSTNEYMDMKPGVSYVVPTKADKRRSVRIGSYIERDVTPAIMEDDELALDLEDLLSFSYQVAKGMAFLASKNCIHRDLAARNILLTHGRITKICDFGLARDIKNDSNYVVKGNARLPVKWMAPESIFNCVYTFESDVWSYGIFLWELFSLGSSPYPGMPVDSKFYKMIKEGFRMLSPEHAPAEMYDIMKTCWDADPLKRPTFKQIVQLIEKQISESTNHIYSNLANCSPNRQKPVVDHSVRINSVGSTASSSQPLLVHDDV
Assay overview: GIST882 KIT Western Blot
Measurement parameters: GIST882 cells, 4 hours, serum-free medium; read-out: pKIT suppression by western blot analysi GIST 882
pIC50: −log10 of the molar value.
Parameter measured: pIC50

A selection of reference data follows.
- Compound: "CC(=O)Nc1cc2c(cn1)cc(-c1cc(NC(=O)Nc3ccccc3)c(F)cc1Cl)c(=O)n2C(C)C [Example 86]"
  pIC50: "> 8.00"
- Compound: "CCn1c(=O)c(-c2cc(NC(=O)Nc3ccccc3)c(F)cc2Cl)cc2cnc(NC(=O)N(C)C)cc21 [Example 70]"
  pIC50: "7.00 to 8.00"
- Compound: "CCn1c(=O)c(-c2cc(NC(=O)Nc3ccccc3)c(F)cc2Cl)cc2cnc(NC(=O)N3CC(O)C3)cc21 [Example 81]"
  pIC50: "7.00 to 8.00"

Moving on to another compound below.
Exercise: pIC50 for CNc1cc2c(cn1)cc(-c1cc(NC(=O)Nc3cccc(F)c3)c(F)cc1Cl)c(=O)n2C(C)C [Example 77] ?
Key: 7.00 to 8.00
